target: MCR-1 (Homo sapiens); construct: expressed in transfected cells; host or cells: HEK 293; experiment: Melanocortin receptor binding assay, competition with 125I-HP 467, HEK 293 cells expressing hMCR-1; conditions: displacement of 125I-HP 467 at 10 μM isoquinoline compound; second of duplicate
Sequence (Q01726 whole entry): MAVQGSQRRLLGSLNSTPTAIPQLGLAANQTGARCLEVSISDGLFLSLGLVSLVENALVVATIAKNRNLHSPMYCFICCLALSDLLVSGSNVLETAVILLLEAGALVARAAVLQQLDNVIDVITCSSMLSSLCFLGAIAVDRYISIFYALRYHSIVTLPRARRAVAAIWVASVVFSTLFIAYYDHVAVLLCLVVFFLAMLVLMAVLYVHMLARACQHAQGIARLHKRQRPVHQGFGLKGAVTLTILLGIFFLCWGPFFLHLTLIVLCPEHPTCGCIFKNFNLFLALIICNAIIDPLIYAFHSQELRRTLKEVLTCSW
observation type: % Disp. MC-1 10 μM (%)

Worked set:
NCCN1Cc2ccccc2C(CNC2CCCCC2)C1c1cnc2ccccc2c1 (centres unmarked) [TRG 2405-52] : 42.3
CNC(CN)CN1Cc2ccccc2C(CNC2CCCCC2)C1c1cccc([N+](=O)[O-])c1 (centres unmarked) [TRG 2405-139] : 45.5

a: NCCN1Cc2ccccc2C(CNC2CCCCC2)C1c1ccc(Cl)c(Cl)c1 (centres unmarked) [TRG 2405-26]
b: NCCN1Cc2ccccc2C(CNC2CCCCC2)C1c1ccc(O)c(O)c1 (centres unmarked) [TRG 2405-25]
stdin: Between a and b , whose recorded % Disp. MC-1 10 μM is greater? When you have decided, please share the label of that item.
stdout: a
